Source: PubChem BioAssay AID2060891

- Test system: K98450-129-R-PDC complex spheroid growth, percent test/control
- experiment.description: Anticancer human tumor K98450-129-R-PDC patient-derived colon adenocarcinoma cell line growth inhibition [RAS]; active = viability on the fitted dose curve at most 10% of control; inactive = the rest
- experimental.parameters: second compound 0.0949 µM; first compound 0.0316 µM
Assign a class; possible classes are yes (active), no (inactive)

[
  {
    "molecule": "CC(Nc1ccc2c(c1)OCCn1cc(N3C(=O)OCC3C(F)F)nc1-2)C(N)=O (stereo not drawn) + CCn1c(-c2cc(N3CCN(C)CC3)cnc2C(C)OC)c2c3cc(ccc31)-c1csc(n1)CC(NC(=O)C1CC1C)C(=O)N1CCCC(N1)C(=O)OCC(C)(C)C2",
    "assigned.category": "no"
  }
]

Kindly provide the recorded test outcome for the following molecule: O=C(c1ccc(F)c(F)c1Nc1ccc(I)cc1F)N1CC(O)([C@@H]2CCCCN2)C1 + CCn1c(-c2cc(N3CCN(C)CC3)cnc2C(C)OC)c2c3cc(ccc31)-c1csc(n1)CC(NC(=O)C1CC1C)C(=O)N1CCCC(N1)C(=O)OCC(C)(C)C2 yes

Which result was noted for this molecule in the test: C[C@@H](NC(=O)c1ncnc(N)c1Cl)c1ncc(C(=O)Nc2cc(C(F)(F)F)c(Cl)cn2)s1 + CCn1c(-c2cc(N3CCN(C)CC3)cnc2C(C)OC)c2c3cc(ccc31)-c1csc(n1)CC(NC(=O)C1CC1C)C(=O)N1CCCC(N1)C(=O)OCC(C)(C)C2 no

So what was the verdict on C[C@@H](NC(=O)c1ncnc(N)c1Cl)c1ncc(C(=O)Nc2cc(C(F)(F)F)c(Cl)cn2)s1 + CCn1c(-c2cccnc2C(C)OC)c2c3cc(ccc31)N1CCOC(CC(NC(=O)C(C(C)C)N(C)C(=O)C3(F)CCN(C(=O)C#CC(C)(C)N(C)C)CC3)C(=O)N3CCCC(N3)C(=O)OCC(C)(C)C2)C1 in this test? no

For Nc1ccn(C2OC(CO)C(O)C2(F)F)c(=O)n1 (stereo not drawn) + CCn1c(-c2cccnc2C(C)OC)c2c3cc(ccc31)N1CCOC(CC(NC(=O)C(C(C)C)N(C)C(=O)C3(F)CCN(C(=O)C#CC(C)(C)N(C)C)CC3)C(=O)N3CCCC(N3)C(=O)OCC(C)(C)C2)C1 , what call appears in the results of this test? no

Which result was noted for this molecule in the test: NC1c2ccccc2OC12CCN(c1cnc3c(N4CCCc5ncccc54)n[nH]c3n1)CC2 (stereo not drawn) + CCn1c(-c2cc(N3CCN(C)CC3)cnc2C(C)OC)c2c3cc(ccc31)-c1csc(n1)CC(NC(=O)C1CC1C)C(=O)N1CCCC(N1)C(=O)OCC(C)(C)C2 no

Recorded test outcome, item C=CC(=O)N1CCN(c2nc(OCC3CCCN3C)nc3c(F)c(-c4nc(N)cc(C)c4C(F)(F)F)c(Cl)cc23)C(C)C1 (stereo not drawn) + CCn1c(-c2cccnc2C(C)OC)c2c3cc(ccc31)N1CCOC(CC(NC(=O)C(C(C)C)N(C)C(=O)C3(F)CCN(C(=O)C#CC(C)(C)N(C)C)CC3)C(=O)N3CCCC(N3)C(=O)OCC(C)(C)C2)C1 no

GET /call?item= CC1(O)CCCC1n1c(=O)c(C(F)F)cc2cnc(NC3CCN(S(C)(=O)=O)CC3)nc21 (stereo not drawn) + CCn1c(-c2cccnc2C(C)OC)c2c3cc(ccc31)N1CCOC(CC(NC(=O)C(C(C)C)N(C)C(=O)C3(F)CCN(C(=O)C#CC(C)(C)N(C)C)CC3)C(=O)N3CCCC(N3)C(=O)OCC(C)(C)C2)C1 returns the recorded outcome of this test. no

---

- Test system: K98450-129-R-PDC complex spheroid growth, percent test/control
- experiment.description: Anticancer human tumor K98450-129-R-PDC cell line growth inhibition [RAS];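 note: luminescence used as a proxy for viable cell amount; spheroids exposed to agents for seven days before the viability readout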
- experimental.parameters: second compound 0.000949 µM; first compound 10 µM; hits give low values
- Source text: RAS pathway inhibitors in Combinations in Complex Spheroids A high-throughput screen of multi-cell type tumor spheroids was designed to identify active combinations of RAS pathway inhibitors and targeted small molecules. Complex spheroids include a stromal component modeled by human endothelial cells (HUVEC) and fibroblasts modeled by human mesenchymal stem cells (MSCs). […] Compounds. […] If the clinical Cmax for an agent had not been determined, the highest concentration tested was 10 microM. […]
observed.property: viability, T/C (%)
Kindly provide the numeric value in % only, without the unit symbol.

[
  {
    "molecule": "CCC(CC)c1cc(NC2CCC(N)C2)n2nccc2n1 (centres undefined) + CCn1c(-c2cc(N3CCN(C)CC3)cnc2C(C)OC)c2c3cc(ccc31)-c1csc(n1)CC(NC(=O)C1CC1C)C(=O)N1CCCC(N1)C(=O)OCC(C)(C)C2",
    "viability, T/C, %": 16.4
  }
]

Name the recorded viability, T/C of the molecule listed here: CC(C)NCC(C(=O)N1CCN(c2ncnc3c2C(C)CC3O)CC1)c1ccc(Cl)cc1 (centres undefined) + CCn1c(-c2cc(N3CCN(C)CC3)cnc2C(C)OC)c2c3cc(ccc31)-c1csc(n1)CC(NC(=O)C1CC1C)C(=O)N1CCCC(N1)C(=O)OCC(C)(C)C2 89.9

Give recorded viability, T/C. CC(=O)OC12COC1CC(O)C1(C)C(=O)C(O)C3=C(C)C(OC(=O)C(O)C(NC(=O)OC(C)(C)C)c4ccccc4)CC(O)(C(OC(=O)c4ccccc4)C21)C3(C)C (centres undefined) + CCn1c(-c2cccnc2C(C)OC)c2c3cc(ccc31)N1CCOC(CC(NC(=O)C(C(C)C)N(C)C(=O)C3(F)CCN(C(=O)C#CC(C)(C)N(C)C)CC3)C(=O)N3CCCC(N3)C(=O)OCC(C)(C)C2)C1 24.8

Provide viability, T/C value for the following molecule: CC1(O)CCCC1n1c(=O)c(C(F)F)cc2cnc(NC3CCN(S(C)(=O)=O)CC3)nc21 (centres undefined) + CCn1c(-c2cc(N3CCN(C)CC3)cnc2C(C)OC)c2c3cc(ccc31)-c1csc(n1)CC(NC(=O)C1CC1C)C(=O)N1CCCC(N1)C(=O)OCC(C)(C)C2 78.4

---

Listing of recorded viability, T/C by entry.
- Tested on: K98450-129-R-PDC complex spheroid growth, percent test/control
- experiment.description: Anticancer human tumor K98450-129-R-PDC cell line growth inhibition [RAS];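 note: luminescence used as a proxy for viable cell amount; spheroids exposed to agents for seven days before the viability readout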
- experimental.parameters: second compound 0.00949 µM; first compound 0.3 µM; hits give low values
Write it as a number; the unit % goes unstated.

# example entries with known answers
[
  {
    "molecule": "CCc1c2c(nc3ccc(O)cc13)-c1cc3c(c(=O)n1C2)COC(=O)[C@]3(O)CC + CCn1c(-c2cccnc2C(C)OC)c2c3cc(ccc31)N1CCOC(CC(NC(=O)C(C(C)C)N(C)C(=O)C3(F)CCN(C(=O)C#CC(C)(C)N(C)C)CC3)C(=O)N3CCCC(N3)C(=O)OCC(C)(C)C2)C1",
    "measured.target": "K98450-129-R-PDC complex spheroid growth, percent test/control",
    "units.label": "%",
    "obs.value": 14
  },
  {
    "molecule": "CCc1c2c(nc3ccc(O)cc13)-c1cc3c(c(=O)n1C2)COC(=O)[C@]3(O)CC + CCn1c(-c2cc(N3CCN(C)CC3)cnc2C(C)OC)c2c3cc(ccc31)-c1csc(n1)CC(NC(=O)C1CC1C)C(=O)N1CCCC(N1)C(=O)OCC(C)(C)C2",
    "measured.target": "K98450-129-R-PDC complex spheroid growth, percent test/control",
    "units.label": "%",
    "obs.value": 22.5
  },
  {
    "molecule": "CC1(C)CCC(Nc2ncc(C(F)(F)F)c(-c3c[nH]c4c(P(C)(C)=O)c(C#N)ccc34)n2)CN1 (centres undefined) + CCn1c(-c2cccnc2C(C)OC)c2c3cc(ccc31)N1CCOC(CC(NC(=O)C(C(C)C)N(C)C(=O)C3(F)CCN(C(=O)C#CC(C)(C)N(C)C)CC3)C(=O)N3CCCC(N3)C(=O)OCC(C)(C)C2)C1",
    "measured.target": "K98450-129-R-PDC complex spheroid growth, percent test/control",
    "units.label": "%",
    "obs.value": 49.6
  }
]

Please turn your attention to the following entry.
Recall the reported viability, T/C of CC1(C)CCC(Nc2ncc(C(F)(F)F)c(-c3c[nH]c4c(P(C)(C)=O)c(C#N)ccc34)n2)CN1 (centres undefined) + CCn1c(-c2cc(N3CCN(C)CC3)cnc2C(C)OC)c2c3cc(ccc31)-c1csc(n1)CC(NC(=O)C1CC1C)C(=O)N1CCCC(N1)C(=O)OCC(C)(C)C2 on K98450-129-R-PDC complex spheroid growth, percent test/control and write it down. 60.2

---

- System: K98450-129-R-PDC complex spheroid growth, percent test/control
- experiment.description: Anticancer human tumor K98450-129-R-PDC cell line growth inhibition [RAS];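 note: luminescence used as a proxy for viable cell amount; spheroids exposed to agents for seven days before the viability readout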
- experimental.parameters: second compound 0.000949 µM; first compound 0.003 µM; hits give low values
observed.property: viability, T/C (%)
Write the number in % without appending the unit.

# count of solved cases: 2
[
  {
    "molecule": "CC1(C)CCC(Nc2ncc(C(F)(F)F)c(-c3c[nH]c4c(P(C)(C)=O)c(C#N)ccc34)n2)CN1 (stereo not drawn) + CCn1c(-c2cccnc2C(C)OC)c2c3cc(ccc31)N1CCOC(CC(NC(=O)C(C(C)C)N(C)C(=O)C3(F)CCN(C(=O)C#CC(C)(C)N(C)C)CC3)C(=O)N3CCCC(N3)C(=O)OCC(C)(C)C2)C1",
    "obs.value": 72.2
  },
  {
    "molecule": "CCc1c2c(nc3ccc(O)cc13)-c1cc3c(c(=O)n1C2)COC(=O)[C@]3(O)CC + CCn1c(-c2cc(N3CCN(C)CC3)cnc2C(C)OC)c2c3cc(ccc31)-c1csc(n1)CC(NC(=O)C1CC1C)C(=O)N1CCCC(N1)C(=O)OCC(C)(C)C2",
    "obs.value": 89.6
  }
]

Let us examine a further case.
Return viability, T/C for the following molecule: CCc1c2c(nc3ccc(O)cc13)-c1cc3c(c(=O)n1C2)COC(=O)[C@]3(O)CC + CCn1c(-c2cccnc2C(C)OC)c2c3cc(ccc31)N1CCOC(CC(NC(=O)C(C(C)C)N(C)C(=O)C3(F)CCN(C(=O)C#CC(C)(C)N(C)C)CC3)C(=O)N3CCCC(N3)C(=O)OCC(C)(C)C2)C1 64.6
